# run_description: basal 3T3-L1 adipocyte mitochondrial potential changes, profiling panel, cell-based, JC-1 fluorescence, 3T3-L1 adipocytes, 24 h, 100 nL compound (AID 1168); note: test concentration not given here
# protocol_conditions: JC-1 mitochondrial fluorescence, higher = more signal, called active from +8 up or from −8 down
Calls of active or inactive are those of the source.
outcome_measure: z-score

Use the examples below as a reference point.
Data request: Can you look up the measured z-score of COC(=O)CC=C[C@H](C)[C@@H](OCc1ccccc1Br)C(C)C for me?
Data returned: 0.319 (inactive)

Data request: Same question for COCCCNC(=O)[C@@]1(CCS(=O)(=O)c2ccccc2)N=C(c2ccc(OCCCO)cc2)O[C@H]1c1ccccc1 please.
Data returned: -0.468 (inactive)

Data request: Same question for COC(=O)[C@@]1(Cc2ccc(F)cc2)[C@H]2c3cc(C(=O)N(C)C)n(Cc4ccc(OC)c(OC)c4)c3C[C@H]2CN1C(=O)c1ccccc1 please.
Data returned: -0.512 (inactive)

Data request: Same question for O=C1[C@H]2[C@H]3[C@H](O)[C@H](O)CC(=NOC[C@@H](O)COCc4ccco4)[C@H]3CC[C@H]2C(=O)N1Cc1ccc2c(c1)OCO2 please.
Data returned: -0.339 (inactive)

Data request: Same question for C=CCOC(=O)[C@H]1[C@@H]2C(=O)O[C@@H](c3ccccc3)[C@@H](c3ccccc3)N2[C@@H](c2ccc(OCCOC(=O)[C@H]3C[C@H]4C(=O)N[C@@H](Cc5ccccc5)C(=O)N4[C@H]3c3ccc(O)cc3)cc2)[C@]12C(=O)Nc1ccccc12 please.
Data returned: 0.0241 (inactive)

Data request: Same question for CC(C)NC(=O)[C@@H]1c2ccccc2C(=O)N(CC23CC4CC(CC(C4)C2)C3)[C@H]1c1ccc(CO)cc1 please.
Data returned: -0.459 (inactive)

New cases:
Data request: Can you look up the measured z-score of COC(=O)CC=C[C@@H](C)[C@@H](C=NO[C@@H](C)c1cc(-c2c(C)cc(C)cc2C)no1)OC for me?
Data returned: -0.613 (inactive)

Data request: Same question for CC(C)N1CC=CC23O[C@@H]4C=CCCOC(=O)C4[C@H]2C(=O)N(CCCCCCO)[C@@H]3C1=O (some centres undefined) please.
Data returned: 0.294 (inactive)

Data request: Same question for COc1ccc(-c2ccc3c(n2)CCCN3CC(O)CN2CCCc3nc(C)c(C)cc32)cc1 (centres undefined) please.
Data returned: -0.205 (inactive)

Data request: Same question for CCc1cccc(NC(=O)O[C@H]2[C@H](OC(=O)Nc3ccc4c(c3)OCO4)[C@@H](OC(=O)Nc3ccc4c(c3)OCO4)[C@@H](OC)O[C@@H]2CO)c1 please.
Data returned: 0.892 (inactive)

Data request: Same question for COc1ccccc1CN1C(=O)c2ccccc2[C@@]2(Cc3ccccc3N(C(C)C)C2=O)[C@@H]1c1ccc(CO)cc1 please.
Data returned: 0.576 (inactive)

Data request: Same question for COC(=O)CC=C[C@@H](C)[C@H](OC)c1ccccc1Br please.
Data returned: -0.288 (inactive)

Data request: Same question for CCOC(=O)[C@H](Cc1ccccc1)NC(=O)CCC1CC(OC(=O)NCc2ccc3c(c2)OCO3)CC2(CCCC(COC(=O)NCc3cccc(C(F)(F)F)c3)O2)O1 (some centres undefined) please.
Data returned: -0.56 (inactive)

Data request: Same question for O=C1[C@H]2[C@H]3[C@H](O)[C@H](O)CC(=NO[C@@H]4O[C@H](CO)[C@@H](O)[C@H](O)[C@H]4O)[C@H]3CC[C@H]2C(=O)N1C1CCCCC1 please.
Data returned: -1.53 (inactive)
